Source of measurements: the Human Domainome abundance scans (Beltran et al. 2025)

B1: E3 ubiquitin-protein ligase TRIM36, residues 208 to 252; numbered along this chain, Q9NQ86 (parent)
chain: KILMCPEHETERINMYCELCRRPVCHLCKLGGNHANHRVTTMSSA

Variants of: B1
protocol-text: abundance fitness (aPCA) (normalised: wild type 0, dead -1); higher = more abundant; growth selection in yeast, the domain comes from the species named
particulars: Homo sapiens
readout: abundance fitness
Please reply with the value in numeric form only.

Guide cases for abundance fitness, answers given:
>>> recorded_measurement("V24D")
-0.453
>>> recorded_measurement("L30S")
0.075
>>> recorded_measurement("N33E")
-0.003

Fill blank: measured abundance fitness of the variant L27T is ____.
0.095
